# Test system: rodent lifetime carcinogenesis bioassay, tumor incidence TD50
# Method: carcinogenic potency in animals, long-term in vivo studies, CPDB compilation (AID 1745844)
# Test parameters: rat; strain Osborne-Mendel; males; in feed; site: thyroid gland; lesion: follicular-cell adenoma + follicular-cell carcinoma; dosed 80 weeks; study length 108 weeks

- Compound: "C=C1C(CCl)(CCl)C2(Cl)C(Cl)C(Cl)C1(Cl)C2(Cl)Cl (stereo unspecified)"
  TD50: "58.9 mg/kg/day"

----------
# System: rodent lifetime carcinogenesis bioassay, tumor incidence TD50
# Method: carcinogenic potency in animals, long-term in vivo studies, CPDB compilation (AID 1745844)
# Test parameters: rat; strain MRC Porton (Wistar derived); females; in feed; site: liver; lesion: one or several types; types not named; dosed 52 weeks; study length 120 weeks

- Line notation: "CN(C)N=O"
  Test target: "rodent lifetime carcinogenesis bioassay, tumor incidence TD50"
  Measurement unit: "mg/kg/day"
  TD50: 0.443
